# Organism: Rattus norvegicus
# assay-remarks: DrugMatrix - Regimen: Daily Repeat
# Format: toxicity, organism-based, Sprague-Dawley
# Set-up: regimen Daily Repeat, gender Male, age 6-8 weeks
# applied-conditions: in vivo, po, 0 mg/kg, 72 h, tissue Plasma, route oral GAVAGE, dose level Control, time 3 day, vehicle 100 % WATER
The following compounds are shown together with reported URIC ACID values.
result-type: URIC ACID (mg/dL)

INSERT INTO assay_data (compound, experimental_result) VALUES
  ('O=c1[nH]c(=O)n(C2CCCO2)cc1F (centres undefined)', 1.7),
  ('CN(C)C(=O)Oc1cccc([N+](C)(C)C)c1.[Br-] [NEOSTIGMINE BROMIDE]', 0.65),
  ('C#Cc1cccc(Nc2ncnc3cc(OCCOC)c(OCCOC)cc23)c1', 0.0167),
  ('CNC1=Nc2ccc(Cl)cc2C(c2ccccc2)=[N+]([O-])C1 [CHLORDIAZEPOXIDE]', 1.65),
  ('CCN(C(C)=O)c1cccc(-c2ccnc3c(C#N)cnn23)c1', 1.57),
  ('NC12CC3CC(CC(C3)C1)C2', 1.57),
  ('CCCC(C)C1(CC)C(=O)NC(=O)NC1=O (centres undefined)', 0.65),
  ('NC(=O)c1cccnc1 [NIACINAMIDE]', 2.08),
  ('CN(C)CCC=C1c2ccccc2CCc2ccccc21', 1.57);
